Data provenance: patent US20190218277A1

- subject-of-test: T1, Recombinant soluble E protein (0.8E-His) from DENV-3 (DENV-3, UniProt P27915 281-673)
- T1 construct: also called DENV-3 E protein; DV3
measure-name: Kd (nM)
Report the figure in nM without appending any unit label.

Short answer for DG_3CH954-SG182/3CL-SK1 (antibody, V domains shown) VH: QVQLVQSGPDVEKPGASVKVSCKASGYTFTSNYIHWVRQAPGQGLEWMGVINPRGGSRRSAQKFQGRITMTRDTSTSTVYMELSSLRSEDTAVYYCARGGRALFYDSYTTPRDDGSWWFDPWGQGSLVTVSS VL: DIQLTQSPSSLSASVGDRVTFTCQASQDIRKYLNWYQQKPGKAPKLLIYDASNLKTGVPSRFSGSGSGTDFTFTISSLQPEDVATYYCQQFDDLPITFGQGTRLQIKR : Kd was 0.124

Entry under test: DG_3CH-SG182/3CL-SK1 (antibody, human IgG1, kappa, V domains shown) VH: QVQLVQSGPDVEKPGASVKVSCKASGYTFTSNYIHWVRQAPGQGLEWMGVINPRGGSTASAQKFQGRITMTRDTSTSTVYMELSSLRSDDTAVYYCARGGRALFYDSYTTPRDGGSWWFDPWGQGSLVTVSS VL: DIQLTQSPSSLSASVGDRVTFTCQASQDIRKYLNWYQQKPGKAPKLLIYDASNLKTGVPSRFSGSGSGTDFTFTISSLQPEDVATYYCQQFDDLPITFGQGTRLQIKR . Its Kd was 6.07

// sample DG_3CH955-SG182/3CL-SK1 (antibody, V domains shown) VH: QVQLVQSGPDVEKPGASVKVSCKASGYTFTSNYIHWVRQAPGQGLEWMGVINPRGGSRRSAQKFQGRITMTRDTSTSTVYMELSSLRSEDTAVYYCARGGRALFYDSYTTPRDLGSWWFDPWGQGSLVTVSS VL: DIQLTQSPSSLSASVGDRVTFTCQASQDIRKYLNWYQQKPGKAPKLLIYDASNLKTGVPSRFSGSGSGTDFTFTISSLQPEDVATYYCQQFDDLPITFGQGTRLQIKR , its Kd was 0.205
